system: T1, recombinant human SOD1 (biomol, Hamburg) (human, UniProt P00441 2-154, limits assumed)
T1 construct: Bought protein; also called recombinant human superoxide dismutase 1; Recombinant SOD1
T1 sequence (P00441 2-154 limits assumed): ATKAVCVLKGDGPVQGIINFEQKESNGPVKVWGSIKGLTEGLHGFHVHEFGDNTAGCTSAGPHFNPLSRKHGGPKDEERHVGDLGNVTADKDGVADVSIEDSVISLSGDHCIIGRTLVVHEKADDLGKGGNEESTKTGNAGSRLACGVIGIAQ
assay-info: direct ELISA, recombinant human SOD1 coated at 1 µg/ml
assay-metric: EC50 (nM)
Express it in nM; write the number only.

Look over these answered cases.
NI-204.10A8 (antibody, human IgG1, V domains shown) VH: EVQLVESGAEVKEPGSSVRVSCKTSGGSFNRHVITWVRQAPGQGLEWMGEIIPFFGTPKYAPKFQGRVTIIADASTSTFFLDVKSLTSEDTALYFCWIVVVSVVQRREDFWGQGILVTVSS VL: EIVLTQSPSSLSASVGDTVTITCRSSQNISNYLSWFQHKPGKAPRILVYAASTLQTGVPSRFSGRGSGTIFTLSITSLQSEDYATYYCQQNDKIPRTFGQGTKVEIK | 18.7
NI-204.9F6 (antibody, human IgG1, V domains shown, also called NI-209.9F6) VH: EVQLVESGGGLVQPGGSLRLSCAVSGFTFDTFAMSWVRQAPGKGLEWVSAITASSSKTYYADSVKGRFTISRDNSRNTVYLRLSSLRADDTAVYFCARPKGAHSGLYIESAFDLWGPGTMVTVSS VL: SYVLTQPPSVSVSAGQTASITCSADMLGDTYVSWYQKRPGQSPVLLIYQDSKRPSEIPERFSGSSSEDTATLTITGTQALDEAAYYCQVWDRRTTTYVFGPGTEVTVL | 134
NI-204.12G7 (antibody, human IgG1, V domains shown) VH: EVQLVESGAEVKKPGASVTLSCKASGYTFTAYYIHWVRQAREQGLEWMGVINPSTGTTFYAQNFPDRVSVTRDTSTSTVFMELHNLKSEDTAVYYCARAISEHGSGSYSPYYWGQGTLVTVSS VL: SYVLTQPPSVSVSLGQMAAITCSGEALPKKYGYWYQQKPGQVPVLLIYRDVERPSGVPDRFSGSSSGTMVTLTISGVQAEDEADYYCLSADSSGTWVFGGGTKLTVL | 3.1

Then there is this binder:
NI-204.10D12 (antibody, V domains shown) VH: EVQLVESGGDLVRPGGSLRLSCVASGFTFSNYWMHWVRQAPGQRPVWVSRTNTDGRNTAYADYAKGRFTISRDNAKSTLYLQLNSLRAEDTAVYFCARLRRNVADQITHNYYMDVWGKGTLVTVSS VL: EIVLTQSPGSLAVSLGERATINCKSSQTVLYNNKNYLAWYQQKPGQPPKLLISWASSRESGVPDRFSGSGSGTDFTLTISSLQAEDVAVYYCQHYYGTPVTFGGGTKVEIK yielded EC50 of 81.4
